experiment: Tmax in Sprague-Dawley rat administered intragastrically; format: ADME; details: in vivo, po, route ig

[
  {
    "item-smiles": "C=CCONC(=O)CCSSCCC(=O)O[C@@H]1CC[C@@]2(C)[C@@H](CC[C@@]3(C)[C@H]2[C@H](O)C[C@H]2/C(=C(\\CCC=C(C)C)C(=O)OCc4ccccc4)[C@@H](OC(C)=O)C[C@@]23C)[C@@H]1C",
    "Tmax / h": 1
  }
]

----------
assay: Cmax in Sprague-Dawley rat administered intragastrically; format: ADME; design: route ig; conditions: in vivo, po
measured-endpoint: Cmax (ng/mL)

[
  {
    "item-smiles": "C=CCONC(=O)CCSSCCC(=O)O[C@@H]1CC[C@@]2(C)[C@@H](CC[C@@]3(C)[C@H]2[C@H](O)C[C@H]2/C(=C(\\CCC=C(C)C)C(=O)OCc4ccccc4)[C@@H](OC(C)=O)C[C@@]23C)[C@@H]1C",
    "quantity-unit": "ng/mL",
    "result-number": 66.5
  }
]
